- assaySystem: VEGFR-2 (Homo sapiens)
- Construct: purchased BPS Bioscience 40325
- assayProtocol: VEGFR-2 kinase inhibition, luminescent VEGFR2 (KDR) kinase assay kit (BPS Bioscience # 40325)
- Type: biochemical
- conditionDetails: dose-response curve fit, unit not given
Kindly supply the reported VEGFR-2 enzyme inhibition LogIC50 (Fig. 3) values for the records listed here.
Numbers only.

Record VEGFR-2 enzyme inhibition LogIC50 (Fig. 3) per entry; entries follow.
1. CCC(C)n1ncn(-c2ccc(N3CCN(c4ccc(OCC5COC(Cn6cncn6)(c6ccc(Cl)cc6Cl)O5)cc4)CC3)cc2)c1=O (stereo not shown)
2. N[C@@H](CC(=O)N1CCn2c(nnc2C(F)(F)F)C1)Cc1cc(F)c(F)cc1F
3. OC(Cn1cncn1)(Cn1cncn1)c1ccc(F)cc1F
4. CCS(=O)(=O)CCn1c([N+](=O)[O-])cnc1C

1: 1.515; 2: 2.016; 3: 2.535; 4: 1.913

----------
- System: MCF-7 cells
- assayProtocol: Cytotoxicity against MCF-7 cells, MTT assay (single dose and five doses)
- conditionDetails: Homo sapiens, MCF7, read-out: Viability (%) 1
Kindly supply the reported viability at 100 µg/mL values for the records listed here.
Remember to quote the unit after the number.

[
  {
    "compound": "COc1cccc2c1C(=O)c1c(O)c3c(c(O)c1C2=O)C[C@@](O)(C(=O)CO)C[C@@H]3O[C@H]1C[C@H](N)[C@H](O)[C@H](C)O1",
    "viability at 100 µg/mL": "41.9%"
  }
]

Record viability at 100 µg/mL per entry; entries follow.
1. CCS(=O)(=O)CCn1c([N+](=O)[O-])cnc1C
2. N[C@@H](CC(=O)N1CCn2c(nnc2C(F)(F)F)C1)Cc1cc(F)c(F)cc1F
3. CCC(C)n1ncn(-c2ccc(N3CCN(c4ccc(OCC5COC(Cn6cncn6)(c6ccc(Cl)cc6Cl)O5)cc4)CC3)cc2)c1=O (centres unmarked)

1. 68.2%
2. 65.7%
3. 70.8%

Record viability at 100 µg/mL per entry; entries follow.
1. O=C1CN(/N=C/c2ccc(-c3ccc([N+](=O)[O-])cc3)o2)C(O)=N1
2. Clc1ccc(COC(Cn2ccnc2)c2ccc(Cl)cc2Cl)c(Cl)c1 (centres unmarked)
3. OC(Cn1cncn1)(Cn1cncn1)c1ccc(F)cc1F
4. CCCCc1nc(Cl)c(CO)n1Cc1ccc(-c2ccccc2-c2nn[nH]n2)cc1

1. 72%
2. 77%
3. 62.7%
4. 71.4%

----------
- System: MCF-7 cells
- assayProtocol: Cytotoxicity against MCF-7 cells, MTT assay (single dose and five doses)
- conditionDetails: read-out: MCF-7 IC50 ± SD; MCF-7, five dose concentrations, MTT, n = 3; listed as TNZ
propertyMeasured: IC50 (µM)
Numbers only, in µM.

# lookup: IC50 of "CCS(=O)(=O)CCn1c([N+](=O)[O-])cnc1C"
301

----------
- Tested on: MCF-7 cells
- assayProtocol: Cytotoxicity against MCF-7 cells, MTT assay (single dose and five doses)
- conditionDetails: Homo sapiens, MCF7, read-out: Viability (%) 3
propertyMeasured: viability at 100 µg/mL (%)
Numbers only, in %.

Record viability at 100 µg/mL per entry; entries follow.
1. OC(Cn1cncn1)(Cn1cncn1)c1ccc(F)cc1F
2. COc1cccc2c1C(=O)c1c(O)c3c(c(O)c1C2=O)C[C@@](O)(C(=O)CO)C[C@@H]3O[C@H]1C[C@H](N)[C@H](O)[C@H](C)O1
3. Clc1ccc(COC(Cn2ccnc2)c2ccc(Cl)cc2Cl)c(Cl)c1 (centres unmarked)
4. N[C@@H](CC(=O)N1CCn2c(nnc2C(F)(F)F)C1)Cc1cc(F)c(F)cc1F
5. O=C1CN(/N=C/c2ccc(-c3ccc([N+](=O)[O-])cc3)o2)C(O)=N1
6. CCCCc1nc(Cl)c(CO)n1Cc1ccc(-c2ccccc2-c2nn[nH]n2)cc1

62.9
53.6
75
63.8
72.5
72.3

Record viability at 100 µg/mL per entry; entries follow.
1. CCS(=O)(=O)CCn1c([N+](=O)[O-])cnc1C
2. CCC(C)n1ncn(-c2ccc(N3CCN(c4ccc(OCC5COC(Cn6cncn6)(c6ccc(Cl)cc6Cl)O5)cc4)CC3)cc2)c1=O (centres unmarked)

1. 68
2. 67.7

----------
- assaySystem: VEGFR-2 (Homo sapiens, UniProt P35968)
- Construct: purchased BPS Bioscience 40325
- Sequence (P35968 20-1356): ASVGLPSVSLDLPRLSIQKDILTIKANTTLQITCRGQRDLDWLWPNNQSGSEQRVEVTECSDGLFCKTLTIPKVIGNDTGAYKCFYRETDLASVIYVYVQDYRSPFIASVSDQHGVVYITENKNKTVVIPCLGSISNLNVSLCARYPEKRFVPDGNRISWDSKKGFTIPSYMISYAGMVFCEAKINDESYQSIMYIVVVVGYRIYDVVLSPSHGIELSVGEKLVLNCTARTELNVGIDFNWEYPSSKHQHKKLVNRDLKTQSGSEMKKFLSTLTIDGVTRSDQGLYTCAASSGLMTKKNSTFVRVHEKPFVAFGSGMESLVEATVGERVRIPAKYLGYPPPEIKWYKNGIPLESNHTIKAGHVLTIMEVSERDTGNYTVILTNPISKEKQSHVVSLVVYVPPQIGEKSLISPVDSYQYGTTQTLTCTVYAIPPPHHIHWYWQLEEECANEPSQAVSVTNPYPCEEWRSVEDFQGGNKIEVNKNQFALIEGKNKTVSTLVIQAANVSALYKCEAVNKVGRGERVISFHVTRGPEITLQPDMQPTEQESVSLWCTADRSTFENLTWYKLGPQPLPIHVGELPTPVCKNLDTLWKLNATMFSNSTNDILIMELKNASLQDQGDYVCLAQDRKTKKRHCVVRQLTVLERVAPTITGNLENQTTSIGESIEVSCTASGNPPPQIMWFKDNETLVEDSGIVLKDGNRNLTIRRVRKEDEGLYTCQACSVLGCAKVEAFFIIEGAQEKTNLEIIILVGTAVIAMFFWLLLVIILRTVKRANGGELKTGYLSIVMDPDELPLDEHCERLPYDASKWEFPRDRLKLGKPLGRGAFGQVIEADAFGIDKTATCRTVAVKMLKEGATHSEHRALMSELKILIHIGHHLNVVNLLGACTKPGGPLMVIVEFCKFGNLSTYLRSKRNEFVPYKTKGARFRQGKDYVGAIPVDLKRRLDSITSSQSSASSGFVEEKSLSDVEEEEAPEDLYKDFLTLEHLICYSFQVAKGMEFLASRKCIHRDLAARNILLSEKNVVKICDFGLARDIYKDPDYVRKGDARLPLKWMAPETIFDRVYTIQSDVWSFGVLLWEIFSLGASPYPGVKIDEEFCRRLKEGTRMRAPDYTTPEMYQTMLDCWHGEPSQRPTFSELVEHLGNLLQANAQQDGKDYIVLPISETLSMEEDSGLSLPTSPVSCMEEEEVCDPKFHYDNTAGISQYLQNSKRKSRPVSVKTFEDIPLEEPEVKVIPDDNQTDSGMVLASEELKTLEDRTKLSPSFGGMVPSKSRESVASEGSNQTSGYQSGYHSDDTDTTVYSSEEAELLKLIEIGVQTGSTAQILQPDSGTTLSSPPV
- assayProtocol: VEGFR-2 kinase inhibition, luminescent VEGFR2 (KDR) kinase assay kit (BPS Bioscience # 40325)
- Type: biochemical
- conditionDetails: dose-response curve fit, unit inferred; read-out: VEGFR-2 enzyme inhibition IC50 (Fig. 3)
propertyMeasured: IC50 (µM)
Give bare numbers, in µM.

# lookup: IC50 of "CCS(=O)(=O)CCn1c([N+](=O)[O-])cnc1C"
81.9

----------
- assaySystem: VEGFR-2 (Homo sapiens, UniProt P35968)
- Construct: purchased BPS Bioscience 40325
- assayProtocol: VEGFR-2 kinase inhibition, luminescent VEGFR2 (KDR) kinase assay kit (BPS Bioscience # 40325)
- Format: biochemical
- conditionDetails: enzyme inhibition, unit printed as nM in text; read-out: VEGFR-2 inhibition IC50
propertyMeasured: IC50 (nM)
Numbers only, in nM.

# lookup: IC50 of "CCS(=O)(=O)CCn1c([N+](=O)[O-])cnc1C"
81900
